Parameter: TGI. Scope: all listed entries.
- System: A549 NSCLC
- experimentalProtocol: NCI tumour cell line growth inhibition, 48 h

Some compounds with recorded TGI:
compound: O=C1CCCCC1C(O)(C(F)(F)F)C(F)(F)Cl (stereo unspecified)
systemUnderTest: A549 NSCLC
TGI: > 10 µM
--
compound: O=C1C=CC(=O)c2cc(Sc3ccccc3)c(=O)c(Sc3ccccc3)cc21
systemUnderTest: A549 NSCLC
TGI: > 100 µM
--
compound: CCCCCCCCCC/C=C/C=O
systemUnderTest: A549 NSCLC
TGI: > 100 µM

Record NC(=N\N=C/c1ccc(Cl)cc1Cl)/C(N)=N\N=C/c1ccc(Cl)cc1Cl , field TGI: > 100 µM

Record Cc1cnc2c(c1)C(=O)N(c1ccc([N+](=O)[O-])cc1)S2(=O)=O , field TGI: > 100 µM

Record COc1ccccc1NC(=O)C(=O)Cc1cnc2ccccc2n1 , field TGI: > 100 µM

Record O=C(O)c1cccc(OCCOc2cccc(C(=O)O)c2[N+](=O)[O-])c1[N+](=O)[O-] , field TGI: > 100 µM
